Parameter self-cleavage kobs at 2500 uM GlcN6P: see the listing below.
B1: glmS ribozyme (parent)
chain: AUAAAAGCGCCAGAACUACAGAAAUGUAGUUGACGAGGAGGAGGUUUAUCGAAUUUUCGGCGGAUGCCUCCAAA

- Variants of: B1
- experiment-summary: self-cleavage kobs at 2500 uM GlcN6P; higher = faster cleavage; RNA array
- run-parameters: with glucosamine-6-phosphate
Fewer inactive variants are shown than the library holds.

### Prompt Look up self-cleavage kobs at 2500 uM GlcN6P: A12C G32C G62A G63U
### Response < 1e-05 s⁻¹

### Prompt Look up self-cleavage kobs at 2500 uM GlcN6P: G35U A39G G43A
### Response < 1e-05 s⁻¹

### Prompt Look up self-cleavage kobs at 2500 uM GlcN6P: A64C G66U C68G
### Response < 1e-05 s⁻¹

### Prompt Look up self-cleavage kobs at 2500 uM GlcN6P: U31A C34A U55A C67G
### Response < 1e-05 s⁻¹

### Prompt Look up self-cleavage kobs at 2500 uM GlcN6P: A42U U65C
### Response < 1e-05 s⁻¹

### Prompt Look up self-cleavage kobs at 2500 uM GlcN6P: C11G G43U A48U C61G A64G
### Response < 1e-05 s⁻¹

### Prompt Look up self-cleavage kobs at 2500 uM GlcN6P: G7A G41A
### Response < 1e-05 s⁻¹

### Prompt Look up self-cleavage kobs at 2500 uM GlcN6P: G9A G62U
### Response < 1e-05 s⁻¹
